Assay: folding stability dG unfold (combined trypsin and chymotrypsin); higher = more stable
Using folding stability dG unfold as the sorting value, the categories are range A (below 0.9 kcal/mol), range B (0.9 kcal/mol to below 3 kcal/mol), range C (3 kcal/mol or more)

SAGGSAGGSKKPIPVKVIETKPDPEIGGITTVELEFPDGSKATFTSIEDIEKIPDIEVEIKLGSAGGSAGGS [r20_192_TrMRF]: range A

INPUT: Please let me know in which category the item SETETITVEVTMPAEELANMSAEELAARLREAFPDLKITSISITVEEVEDPETGERLVRVTVTITVERVPSA [r9_1189_TrROS_Hall] belongs.
OUTPUT: range C

INPUT: What would you report for SAGGSAGGSAMKVRVKIKITRGSKEYEEEFILPEEEIEKLKEEIPEDYEVEIVDKEPLVLKSAGGSAGGSAG [r3_195_JUSTAS] ?
OUTPUT: range A

INPUT: What would you report for SAGGMVVTEEGDKTYITVRVPAPPGLPPEAVAAEIRERYGLSDLEVLEVEALPDGTLVVRLRDSTPASAGGS [r16_234_JUSTAS] ?
OUTPUT: range B

INPUT: What would you report for SAGGSAGGSEIKIEKAEITVEYDEETGVFRATITLPDGYRITAEFRLRPDGSLELTRVEIEEVSAGGSAGGS [r12_111_TrROS_Hall] ?
OUTPUT: range C

INPUT: What would you report for SAGGSLTAEWDTSTGTVRLTFPDGSVVELPFPTSGAVVRATVDGDKVTIEVLDKDNPKVVARFTFDLGSAGG [r13_938_TrMRF] ?
OUTPUT: range C

INPUT: What would you report for SAGGMKTIEYPVVMDEEEAVKLVEELVAKAKAEGEETVVKVEVYRIGKGPDGVPTREKLGTYEVEVPGSAGG [r13_974_JUSTAS] ?
OUTPUT: range A

INPUT: What would you report for SAGKIEITVKPDGTVIIKVTVEVDGKKLELTIEVPPEMTIEEIIEKLKELAEELGVEKVEVEIVPLPPSAGG [r19_31_TrROS_Hall] ?
OUTPUT: range C

INPUT: What would you report for SAGGMVTITTEKMTEEEAEELKKKLPPNTVLLPNPANDTIVPILVPPDPAVLQAVKDALEKELAEAKSAGGS [r16_311_JUSTAS] ?
OUTPUT: range B

INPUT: What would you report for SAGGSAGGSMVEYTFTVYDPRTGKETLFTVPSDIPFEEAKEKVEKEIRKGLPPNYTVTFTKPASAGGSAGGS [r20_213_JUSTAS] ?
OUTPUT: range B

INPUT: What would you report for SAGGSAGGSAGGGMKVEKEESPDSTVTETITDPSSENTTIVTKEVLPDGSLKVTETKELPSAGGSAGGSAGG [r7_828_JUSTAS] ?
OUTPUT: range A

INPUT: What would you report for SAGASVEQWSLTSVEVTELPGPEVVVPMTARLPDGTEVVMSGVVGPGSVTLTSPDGSTSTLAIPPALASAGG [r19_84_JUSTAS] ?
OUTPUT: range B

###

Experiment: folding stability dG unfold from chymotrypsin proteolysis; higher = more stable
Quick rule: folding stability dG unfold of at least 2 kcal/mol means satisfied, below that means not satisfied.

Please review the entries below; each comes with its answer.
SAGGSIEEVIEELIKSGKPPSKEEIKEAIKKAIEEEVKKKGKKIPKVNIKKITSNPETGKIPIEIIISAGGS [r16_365_JUSTAS]: not satisfied
MTVTVPPDGTVTITLTDPSGNTYTFTIPVTDPAELRARLEEAIRELFPEFEDIPVRVVAVDGPAVVVEVPLS [r1_389_JUSTAS]: satisfied
STSTTITYPTLTISVEESVLPDGTPRYTVTLHLPEKGVSIPVEVDSAAEAEEAVREAIRKLLPDETVEEESA [r9_749_JUSTAS]: satisfied
SAGGSAGGSAKIIVNEDGYLIKITNKNGKEITIEMSEDELKELLKKLGIKKAEIVPLPKEKSAGGSAGGSAG [r3_141_TrROS_Hall]: satisfied

Could you now consider this next sequence?
INPUT: Say whether SAGGAPVTTFSLTLENPETGLNWTSTSATYDPATGTLTLNLKRPQSGESLTLTTPVTVVSPEEPELASAGGS [r8_193_JUSTAS] shows folding stability dG unfold of 2 kcal/mol or more.
OUTPUT: not satisfied
